Catalogue of glycan array binding signal (z-score) values
Target desc: Neu5Ac(a2-6)Gal(b1-4)GlcNAc(b1-2)Man(a1-3)[Neu5Ac(a2-3)Gal(b1-4)GlcNAc(b1-2)Man(a1-6)]Man(b1-4)GlcNAc(b1-4)GlcNAc
Measurement notes: glycan array binding signal (z-score within array); higher = stronger binding
Condition summary: glycan notation: IUPAC condensed, linker removed
This is one part of a sample in which the strongest signals are shown more often than they occur.
Property measured: glycan array binding signal (z-score)

• MGL1 (Mus musculus), P49300 (protein) MIYENLQNSRIEEKTQEPGKAPSQSFLWRILSWTHLLLFSLGLSLLLLVVVSVIGSQNSQLRRDLGTLRATLDNTTSKIKAEFQSLDSRADSFEKGISSLKVDVEDHRQELQAGRDLSQKVTSLESTVEKREQALKTDLSDLTDHVQQLRKDLKALTCQLANLKNNGSEVACCPLHWTEHEGSCYWFSESEKSWPEADKYCRLENSHLVVVNSLEEQNFLQNRLANVVSWIGLTDQNGPWRWVDGTDFEKGFKNWAPLQPDNWFGHGLGGGEDCAHITTGGPWNDDVCQRTFRWICEMKLAKES = -0.988
• OVGAL11 (Ovis aries), AAF64320 (protein) MDSLPNPYLQSVSLTVCYMVKIKANLLSAFGKNPELQVDFGTGTGQGGNIPFRFWYCDGMVVMNTFTDGSWQKEEKVLTDAFVPGQPFELQFLVLEKEYQVFVKNKPICQFAHRLPLQSVKMLDVRGDIVLTSVDTL = -0.08
• Gal 9 (Homo sapiens), O00182 (protein) MAFSGSQAPYLSPAVPFSGTIQGGLQDGLQITVNGTVLSSSGTRFAVNFQTGFSGNDIAFHFNPRFEDGGYVVCNTRQNGSWGPEERKTHMPFQKGMPFDLCFLVQSSDFKVMVNGILFVQYFHRVPFHRVDTISVNGSVQLSYISFQNPRTVPVQPAFSTVPFSQPVCFPPRPRGRRQKPPGVWPANPAPITQTVIHTVQSAPGQMFSTPAIPPMMYPHPAYPMPFITTILGGLYPSKSILLSGTVLPSAQRFHINLCSGNHIAFHLNPRFDENAVVRNTQIDNSWGSEERSLPRKMPFVRGQSFSVWILCEAHCLKVAVDGQHLFEYYHRLRNLPTINRLEVGGDIQLTHVQT = -0.259
